Assay: Thermodynamic solubility of the compound […] at pH 7.4
Type: physicochemical
Settings: read-out: Therm_solubility
Rule: Yes for solubility thermodynamic not less than 0.02 mg/mL, No for anything less.

Field: example entries. Status: answers known.
INSERT INTO measurements (compound, label_class) VALUES
  ('OC[C@H]1CCN1c1nc(-c2cnn(C3CNC3)c2)cc(C(F)(F)F)n1', 'Yes'),
  ('C[C@H]1CCN1c1nc(-c2cnn(CC(=O)N3CCNCC3)c2)cc(C(F)(F)F)n1 [LY-3522348]', 'Yes');

Exercise: Record C[C@H]1CCN1c1nc(-c2cnn(C3CCNCC3)c2)cc(C(F)(F)F)c1C#N ; criterion: solubility thermodynamic no lower than 0.02 mg/mL. Met?
Key: Yes

Exercise: Record C[C@H]1CCN1c1nc(-c2cnn(CC(=O)N3CCN(C)CC3)c2)cc(C(F)(F)F)c1C#N ; criterion: solubility thermodynamic no lower than 0.02 mg/mL. Met?
Key: No

Exercise: Record CC(=O)N1CCC(n2cc(-c3cc(C(F)(F)F)c(C#N)c(N4CC[C@@H]4C)n3)cn2)CC1 ; criterion: solubility thermodynamic no lower than 0.02 mg/mL. Met?
Key: No

Exercise: Record C[C@H]1CCN1c1nc(-c2cnn(CC(=O)NCCO)c2)cc(C(F)(F)F)c1C#N ; criterion: solubility thermodynamic no lower than 0.02 mg/mL. Met?
Key: Yes

Exercise: Record C[C@H]1CCN1c1nc(-c2cnn(CCO)c2)cc(C(F)(F)F)c1C#N ; criterion: solubility thermodynamic no lower than 0.02 mg/mL. Met?
Key: No

Exercise: Record C[C@H]1CCN1c1nc(-c2cnn(C3CN(C)C3)c2)cc(C(F)(F)F)n1 ; criterion: solubility thermodynamic no lower than 0.02 mg/mL. Met?
Key: No

Exercise: Record C[C@H]1CCN1c1nc(-c2cnn(CC(=O)N(CCO)CCO)c2)cc(C(F)(F)F)c1C#N ; criterion: solubility thermodynamic no lower than 0.02 mg/mL. Met?
Key: Yes

Exercise: Record C[C@H]1CCN1c1nc(-c2cnn(C3CCN(C)CC3)c2)cc(C(F)(F)F)c1C#N ; criterion: solubility thermodynamic no lower than 0.02 mg/mL. Met?
Key: No

Exercise: Record C[C@H]1CCN1c1nc(-c2cnn(CC(=O)N3C[C@H](O)[C@@H](O)C3)c2)cc(C(F)(F)F)c1C#N ; criterion: solubility thermodynamic no lower than 0.02 mg/mL. Met?
Key: Yes

Exercise: Record C[C@H]1CCN1c1nc(-c2cnn(C3CCOCC3)c2)cc(C(F)(F)F)c1C#N ; criterion: solubility thermodynamic no lower than 0.02 mg/mL. Met?
Key: Yes

Exercise: Record C[C@H]1CCN1c1nc(-c2cnn(CCN(C)C)c2)cc(C(F)(F)F)c1C#N ; criterion: solubility thermodynamic no lower than 0.02 mg/mL. Met?
Key: No

Exercise: Record C[C@H]1CCN1c1nc(-c2cnn(C3CCN(C(=O)CN)CC3)c2)cc(C(F)(F)F)c1C#N ; criterion: solubility thermodynamic no lower than 0.02 mg/mL. Met?
Key: No

Exercise: Record C[C@H]1CCN1c1nc(-c2cnn(CC(=O)N3C[C@@H](O)[C@H](O)C3)c2)cc(C(F)(F)F)c1C#N ; criterion: solubility thermodynamic no lower than 0.02 mg/mL. Met?
Key: No

Exercise: Record C[C@H]1CCN1c1nc(-c2cnn(C3CNC3)c2)cc(C(F)(F)F)c1C#N ; criterion: solubility thermodynamic no lower than 0.02 mg/mL. Met?
Key: Yes

* * *

Assay: Clearance in human hepatocytes measured per 10^6 cells
Format: ADME, cell-based, Hepatocyte
Conditions: read-out: CLH
The following molecules are shown together with reported hepatocyte CLint values.

# count of solved cases: 2
INSERT INTO results (molecule_smiles, result) VALUES
  ('C[C@H]1CCN1c1nc(-c2cnn(C3CNC3)c2)cc(C(F)(F)F)n1', '2.5 µL/min/1e6 cells'),
  ('C[C@H]1CCN1c1nc(-c2cnn(CC(=O)N3CCNCC3)c2)cc(C(F)(F)F)n1', '< 1.8 µL/min/1e6 cells');

Exercise: Reported hepatocyte CLint, molecule C[C@H]1CCN1c1nc(-c2cnn(CC(=O)NCCO)c2)cc(C(F)(F)F)c1C#N : ____
Key: 2.8 µL/min/1e6 cells

Exercise: Reported hepatocyte CLint, molecule C[C@H]1CCN1c1nc(-c2cnn(CC(=O)N(CCO)CCO)c2)cc(C(F)(F)F)c1C#N : ____
Key: 43 µL/min/1e6 cells

Exercise: Reported hepatocyte CLint, molecule C[C@H]1CCN1c1nc(-c2cn[nH]c2)cc(C(F)(F)F)c1C#N : ____
Key: 49 µL/min/1e6 cells

Exercise: Reported hepatocyte CLint, molecule C[C@H]1CCN1c1nc(-c2cnn(CC(=O)N3C[C@@H](O)[C@H](O)C3)c2)cc(C(F)(F)F)c1C#N : ____
Key: 6.1 µL/min/1e6 cells

Exercise: Reported hepatocyte CLint, molecule C[C@H]1CCN1c1nc(-c2cnn(C3CCNCC3)c2)cc(C(F)(F)F)c1C#N : ____
Key: 3.5 µL/min/1e6 cells

Exercise: Reported hepatocyte CLint, molecule C[C@H]1CCN1c1nc(-c2cnn(CC(=O)N3C[C@H](O)[C@@H](O)C3)c2)cc(C(F)(F)F)c1C#N : ____
Key: 3.6 µL/min/1e6 cells

Exercise: Reported hepatocyte CLint, molecule OC[C@H]1CCN1c1nc(-c2cnn(C3CCNCC3)c2)cc(C(F)(F)F)n1 : ____
Key: 1.8 µL/min/1e6 cells

Exercise: Reported hepatocyte CLint, molecule OC[C@H]1CCN1c1nc(-c2cnn(C3CNC3)c2)cc(C(F)(F)F)n1 : ____
Key: < 1.8 µL/min/1e6 cells

Exercise: Reported hepatocyte CLint, molecule C[C@H]1CCN1c1nc(-c2cnn(C3CN(C)C3)c2)cc(C(F)(F)F)n1 : ____
Key: 5 µL/min/1e6 cells

* * *

Assay: Half life in rat at 3 mg/kg, po measured after 12 hrs
Type: ADME, organism-based
Settings: in vivo
The following molecules are shown together with reported half-life values.
# value in h; strip the unit string

INSERT INTO assay_data (molecule_smiles, experimental_endpoint, measured_number) VALUES
  ('OC[C@H]1CCN1c1nc(-c2cnn(C3CCNCC3)c2)cc(C(F)(F)F)n1', 'half-life', 5);

Consider the record given below.
Exercise: Reported half-life, molecule C[C@H]1CCN1c1nc(-c2cnn(CC(=O)NCCO)c2)cc(C(F)(F)F)c1C#N : ____
Key: 3

* * *

Experiment: Tmax in rat at 3 mg/kg, po measured after 12 hrs
Assay type: ADME, organism-based
Settings: in vivo
EXPERIMENTAL_ENDPOINT: Tmax
A complete answer gives the number and then names the unit.

INSERT INTO assay_data (molecule_smiles, result) VALUES
  ('OC[C@H]1CCN1c1nc(-c2cnn(C3CCNCC3)c2)cc(C(F)(F)F)n1', '1.7 h');

Consider the record given below.
Exercise: Reported Tmax, molecule C[C@H]1CCN1c1nc(-c2cnn(CC(=O)NCCO)c2)cc(C(F)(F)F)c1C#N : ____
Key: 1.2 h

* * *

Test: Unbound fraction in rat plasma at 1 uM
Type: ADME, cell-free
EXPERIMENTAL_ENDPOINT: fraction unbound at 1 µM
Please give only the number in your answer, with no unit.

Exercise: Reported fraction unbound at 1 µM, compound C[C@H]1CCN1c1nc(-c2cnn(CC(=O)N3CCNCC3)c2)cc(C(F)(F)F)n1 : ____
Key: 0.18

* * *

Test: AUC in rat at 1 mg/kg, iv measured after 12 hrs
Type: ADME, organism-based
Design: time 12 hrs, dose 1 mg/kg, route iv
Details: in vivo
EXPERIMENTAL_ENDPOINT: log10 AUC at 12 h (log10 of the value in µM·h)
Please note: log10 values; quantity AUC at 12 h; unit µM·h.

# count of solved cases: 5
INSERT INTO results (molecule_smiles, experimental_endpoint, measured_number) VALUES
  ('C[C@H]1CCN1c1nc(-c2cnn(CC(=O)N3C[C@@H](O)[C@H](O)C3)c2)cc(C(F)(F)F)c1C#N', 'log10 AUC at 12 h', -0.28),
  ('OC[C@H]1CCN1c1nc(-c2cnn(C3CNC3)c2)cc(C(F)(F)F)n1', 'log10 AUC at 12 h', -0.27),
  ('C[C@H]1CCN1c1nc(-c2cnn(CC(=O)N(CCO)CCO)c2)cc(C(F)(F)F)c1C#N', 'log10 AUC at 12 h', 0.20),
  ('C[C@H]1CCN1c1nc(-c2cnn(CC(=O)N3CCNCC3)c2)cc(C(F)(F)F)n1', 'log10 AUC at 12 h', 0.85),
  ('C[C@H]1CCN1c1nc(-c2cnn(CC(=O)NCCO)c2)cc(C(F)(F)F)c1C#N', 'log10 AUC at 12 h', 0.42);

Exercise: Reported log10 AUC at 12 h, compound OC[C@H]1CCN1c1nc(-c2cnn(C3CCNCC3)c2)cc(C(F)(F)F)n1 : ____
Key: -0.16

Exercise: Reported log10 AUC at 12 h, compound C[C@H]1CCN1c1nc(-c2cnn(CC(=O)N3C[C@H](O)[C@@H](O)C3)c2)cc(C(F)(F)F)c1C#N : ____
Key: -0.42
